Assay: suppression of KLF5 promoter-driven luciferase – DLD-1 cells, luminescence, primary screen (AID 1700);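 also: 0% = DMSO wells and 100% = LY294002 at 200 µM; higher means less KLF5 promoter-driven luciferase light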
Details: DLD-1 KLF5 promoter-luciferase reporter, at 5 µM, active compounds read high
In all, about 290,000 compounds went through this assay and about 670 (0.23%) were called active. The sample as a whole holds a higher share of actives than the screen did.
Recorded inhibition values for a group of compounds are listed next.
Give just the numeric value; % need not be written.

Recorded results for 3 compounds are shown here.
[[record]]
compound = "COc1cc2nc(N3CCN(C(=O)[C@@H]4CCCO4)CC3)nc(N)c2cc1OC"
assay_result = -16.5

[[record]]
compound = "COc1ccc(N2C(=O)/C(=C/c3ccco3)C(=O)NC2=S)cc1"
assay_result = -5.05

[[record]]
compound = "O=C1NC(=O)C(CCc2ccccn2)(Cc2cccc(Cl)c2Cl)C(=O)N1c1ccc(Br)cc1 (centres undefined)"
assay_result = -5.72


Okay, next one:
Given CCN(CC)c1ccc([N+](=O)[O-])c2cccnc12 , respond with its inhibition.
-21
